# target.or.system: His6-JNK1α1 (UniProt P45983-2 1-384)
# assay.details: fluorescence polarisation
TMR = 6-carboxytetramethylrhodamine
recorded.metric: pKd
Here pKd is given on a logarithmic scale as minus log10 of the concentration in mol/L.

Find the recorded pKd belonging to {TMR}-RPKRPTTLNLF-OH [TMR-JIPtide] and report it.
5.49

Ref: paper PMC6338552
